EC50 for assorted compounds
Study system: 5-hydroxytryptamine receptor 2A (Rattus norvegicus, UniProt P14842)
Sequence (P14842 whole entry): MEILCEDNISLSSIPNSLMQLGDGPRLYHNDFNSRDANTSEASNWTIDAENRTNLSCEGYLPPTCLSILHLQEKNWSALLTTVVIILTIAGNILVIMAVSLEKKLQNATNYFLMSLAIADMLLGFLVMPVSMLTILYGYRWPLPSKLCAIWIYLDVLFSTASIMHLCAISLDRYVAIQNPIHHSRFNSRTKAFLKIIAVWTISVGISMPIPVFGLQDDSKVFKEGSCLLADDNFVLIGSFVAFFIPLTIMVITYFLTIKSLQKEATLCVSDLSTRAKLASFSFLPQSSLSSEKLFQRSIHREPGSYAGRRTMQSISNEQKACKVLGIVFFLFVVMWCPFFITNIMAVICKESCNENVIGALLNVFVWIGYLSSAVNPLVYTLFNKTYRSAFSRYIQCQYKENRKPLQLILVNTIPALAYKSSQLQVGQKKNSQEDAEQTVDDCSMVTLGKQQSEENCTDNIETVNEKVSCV
Method: Activity at rat 5HT2A receptor assessed as 5-HT-stimulated IP3 accumulation
Report as a plain number; the unit µM is understood.

# example entries with known answers
Compound: COc1cc(CCN)cc(OC)c1OC
EC50, µM: 11.3
//
Compound: COc1cc2c(c(OC)c1OC)CCC2CN (racemic)
EC50, µM: 6.1

// field: EC50; key: COc1cc2c(c(OC)c1OC)CC[C@H]2CN ; value = 3.2

Data provenance is ChEMBL document CHEMBL1138093.
